Listed next: entries and their corresponding viability, T/C.
Tested on: 435261-313-R-J1-PDC tumor spheroid viability
Assay: Anticancer human tumor 435261-313-R-J1-PDC patient-derived colon adenocarcinoma cell line growth inhibition [PI3K]
Settings: second compound 1 µM; first compound 0.0316 µM; stronger effect = lower value; spheroids with HUVEC and MSC
Field: numeric (%). Do not append units.

Here is how some compounds turned out for viability, T/C.
COMPOUND	MEASUREMENT_KIND	NUMERIC_VALUE
CC(C)n1nc(-c2ccc3oc(N)nc3c2)c2c(N)ncnc21 + Cc1nc(NC(=O)N2CCCC2C(N)=O)sc1-c1ccnc(C(C)(C)C(F)(F)F)c1	viability, T/C	19.6
C=CC(=O)N1CCN(c2nc(=O)n(-c3c(C)ccnc3C(C)C)c3nc(-c4c(O)cccc4F)c(F)cc23)C(C)C1 (stereo not given) + CC(Nc1ncnc2nc[nH]c12)c1cc2cccc(Cl)c2c(=O)n1-c1ccccc1	viability, T/C	76.3
C=CC(=O)N1CCN(c2nc(=O)n(-c3c(C)ccnc3C(C)C)c3nc(-c4c(O)cccc4F)c(F)cc23)C(C)C1 (stereo not given) + CC(Nc1ccc2c(c1)OCCn1cc(N3C(=O)OCC3C(F)F)nc1-2)C(N)=O	viability, T/C	20.2

Query: Return viability, T/C measured with 435261-313-R-J1-PDC tumor spheroid viability given this compound: CC(Cn1ccc(-c2ccc(C#N)c(Cl)c2)n1)NC(=O)c1cc(C(C)O)[nH]n1 (stereo not given) + CC(Nc1ncnc2nc[nH]c12)c1cc2cccc(Cl)c2c(=O)n1-c1ccccc1
Response: 81.1

Query: Now consider Cn1nccc1Nc1nccc(-c2ccn(C(CO)c3ccc(Cl)c(F)c3)c(=O)c2)n1 (stereo not given) + CC(Nc1ncnc2nc[nH]c12)c1cc2cccc(Cl)c2c(=O)n1-c1ccccc1 .
Response: 71.5

----------
Test system: 435261-313-R-J1-PDC tumor spheroid viability
Experiment: Anticancer human tumor 435261-313-R-J1-PDC cell line growth inhibition [PI3K]; active = viability on the fitted dose curve at most 10% of control; inactive = the rest;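 further: spheroids exposed to compounds for 7 days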
Conditions: second compound 1 µM; first compound 0.01 µM; spheroids with HUVEC and MSC
Source text: Combinatorial screen of targeted agents with the PI3K inhibitors inavolisib, alpelisib, duvelisib, and copanlisib in multi-cell type tumor spheroids A high-throughput screen of multi-cell type tumor spheroids was designed to identify active combinations of targeted small molecules and PI3K pathway inhibitors. […] Compounds. […] If the clinical Cmax for an agent had not been determined, the highest concentration tested was 10 microM. […]
// one of yes (active), no (inactive), no free text

Here's what some known entries look like.
MOLECULE	ANSWER_LABEL
CC(=O)c1c(C)c2cnc(Nc3ccc(N4CCNCC4)cn3)nc2n(C2CCCC2)c1=O + CC(Nc1ncnc2nc[nH]c12)c1cc2cccc(Cl)c2c(=O)n1-c1ccccc1	no
CCN1CCN(Cc2ccc(Nc3ncc(F)c(-c4cc(F)c5nc(C)n(C(C)C)c5c4)n3)nc2)CC1 + COc1c(OCCCN2CCOCC2)ccc2c3n(c(=NC(=O)c4cnc(N)nc4)nc12)CCN3	yes
Cn1ncnc1[C@H]1c2n[nH]c(=O)c3cc(F)cc(c23)N[C@@H]1c1ccc(F)cc1 + Cc1nc(NC(=O)N2CCCC2C(N)=O)sc1-c1ccnc(C(C)(C)C(F)(F)F)c1	no
CCN1CCN(Cc2ccc(Nc3ncc(F)c(-c4cc(F)c5nc(C)n(C(C)C)c5c4)n3)nc2)CC1 + CC(Nc1ccc2c(c1)OCCn1cc(N3C(=O)OCC3C(F)F)nc1-2)C(N)=O	no
Cn1ncnc1[C@H]1c2n[nH]c(=O)c3cc(F)cc(c23)N[C@@H]1c1ccc(F)cc1 + CC(Nc1ccc2c(c1)OCCn1cc(N3C(=O)OCC3C(F)F)nc1-2)C(N)=O	no

Query: Test call, this molecule: CCN1CCN(Cc2ccc(Nc3ncc(F)c(-c4cc(F)c5nc(C)n(C(C)C)c5c4)n3)nc2)CC1 + CC(Nc1ncnc2nc[nH]c12)c1cc2cccc(Cl)c2c(=O)n1-c1ccccc1
Response: no

Query: Now consider CC(=O)c1c(C)c2cnc(Nc3ccc(N4CCNCC4)cn3)nc2n(C2CCCC2)c1=O + CC(Nc1ccc2c(c1)OCCn1cc(N3C(=O)OCC3C(F)F)nc1-2)C(N)=O .
Response: no

Query: Now consider Cn1ncnc1[C@H]1c2n[nH]c(=O)c3cc(F)cc(c23)N[C@@H]1c1ccc(F)cc1 + CC(Nc1ncnc2nc[nH]c12)c1cc2cccc(Cl)c2c(=O)n1-c1ccccc1 .
Response: no

Query: Now consider CC(=O)c1c(C)c2cnc(Nc3ccc(N4CCNCC4)cn3)nc2n(C2CCCC2)c1=O + Cc1nc(NC(=O)N2CCCC2C(N)=O)sc1-c1ccnc(C(C)(C)C(F)(F)F)c1 .
Response: no

Query: Now consider CC(C)n1nc(-c2ccc3oc(N)nc3c2)c2c(N)ncnc21 + COc1c(OCCCN2CCOCC2)ccc2c3n(c(=NC(=O)c4cnc(N)nc4)nc12)CCN3 .
Response: yes

Query: Now consider CC(C)n1nc(-c2ccc3oc(N)nc3c2)c2c(N)ncnc21 + Cc1nc(NC(=O)N2CCCC2C(N)=O)sc1-c1ccnc(C(C)(C)C(F)(F)F)c1 .
Response: no

----------
Tested on: 435261-313-R-J1-PDC tumor spheroid viability
Test: Anticancer human tumor 435261-313-R-J1-PDC cell line growth inhibition [PI3K];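 further: spheroids exposed to compounds for 7 days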
Details: curve of first compound; second compound 1 µM; spheroids with HUVEC and MSC
Listed next: entries and their corresponding IC50.

Here is how some molecules turned out for IC50.
MOLECULE	RESULT
Cn1ncnc1[C@H]1c2n[nH]c(=O)c3cc(F)cc(c23)N[C@@H]1c1ccc(F)cc1 + CC(Nc1ccc2c(c1)OCCn1cc(N3C(=O)OCC3C(F)F)nc1-2)C(N)=O	< 0.316 nM
CC(Cn1ccc(-c2ccc(C#N)c(Cl)c2)n1)NC(=O)c1cc(C(C)O)[nH]n1 (stereo not given) + CC(Nc1ncnc2nc[nH]c12)c1cc2cccc(Cl)c2c(=O)n1-c1ccccc1	> 10000 nM
Cn1cnc2c(F)c(Nc3ccc(Br)cc3Cl)c(C(=O)NOCCO)cc21 + CC(Nc1ncnc2nc[nH]c12)c1cc2cccc(Cl)c2c(=O)n1-c1ccccc1	< 9.49 nM
Cn1ncc(Cl)c1-c1cc(C(=O)NC(CN)Cc2cccc(F)c2)sc1Cl (stereo not given) + CC(Nc1ccc2c(c1)OCCn1cc(N3C(=O)OCC3C(F)F)nc1-2)C(N)=O	< 31.6 nM

Next:
Query: Which measured IC50 value corresponds to CNC(=O)c1ccc(N2C(=S)N(c3ccc(C#N)c(C(F)(F)F)c3)C(=O)C2(C)C)cc1F + CC(Nc1ncnc2nc[nH]c12)c1cc2cccc(Cl)c2c(=O)n1-c1ccccc1 ?
Response: > 10000 nM

----------
Test system: 435261-313-R-J1-PDC tumor spheroid viability
Assay: Anticancer human tumor 435261-313-R-J1-PDC cell line growth inhibition [PI3K];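 further: spheroids exposed to compounds for 7 days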
Conditions: curve of first compound; second compound 1 µM; spheroids with HUVEC and MSC
Excerpt: Combinatorial screen of targeted agents with the PI3K inhibitors inavolisib, alpelisib, duvelisib, and copanlisib in multi-cell type tumor spheroids A high-throughput screen of multi-cell type tumor spheroids was designed to identify active combinations of targeted small molecules and PI3K pathway inhibitors. […] Compounds. […] If the clinical Cmax for an agent had not been determined, the highest concentration tested was 10 microM. […]
MEASUREMENT_KIND: IC50

Here is how some compounds turned out for IC50.
COMPOUND	MEASUREMENT_KIND	RESULT
CC(C)n1nc(-c2ccc3oc(N)nc3c2)c2c(N)ncnc21 + Cc1nc(NC(=O)N2CCCC2C(N)=O)sc1-c1ccnc(C(C)(C)C(F)(F)F)c1	IC50	< 0.316 nM
CCN1CCN(Cc2ccc(Nc3ncc(F)c(-c4cc(F)c5nc(C)n(C(C)C)c5c4)n3)nc2)CC1 + COc1c(OCCCN2CCOCC2)ccc2c3n(c(=NC(=O)c4cnc(N)nc4)nc12)CCN3	IC50	< 3.16 nM
CC1(C)CCC(CN2CCN(c3ccc(C(=O)NS(=O)(=O)c4ccc(NCC5CCOCC5)c([N+](=O)[O-])c4)c(Oc4cnc5[nH]ccc5c4)c3)CC2)=C(c2ccc(Cl)cc2)C1 + CC(Nc1ncnc2nc[nH]c12)c1cc2cccc(Cl)c2c(=O)n1-c1ccccc1	IC50	> 10000 nM
Cn1cnc2c(F)c(Nc3ccc(Br)cc3Cl)c(C(=O)NOCCO)cc21 + CC(Nc1ccc2c(c1)OCCn1cc(N3C(=O)OCC3C(F)F)nc1-2)C(N)=O	IC50	< 9.49 nM
CNC(=O)c1ccc(N2C(=S)N(c3ccc(C#N)c(C(F)(F)F)c3)C(=O)C2(C)C)cc1F + Cc1nc(NC(=O)N2CCCC2C(N)=O)sc1-c1ccnc(C(C)(C)C(F)(F)F)c1	IC50	< 31.6 nM
C[C@@H](NC(=O)c1ncnc(N)c1Cl)c1ncc(C(=O)Nc2cc(C(F)(F)F)c(Cl)cn2)s1 + CC(Nc1ccc2c(c1)OCCn1cc(N3C(=O)OCC3C(F)F)nc1-2)C(N)=O	IC50	< 31.6 nM
CC(C)n1nc(-c2ccc3oc(N)nc3c2)c2c(N)ncnc21 + COc1c(OCCCN2CCOCC2)ccc2c3n(c(=NC(=O)c4cnc(N)nc4)nc12)CCN3	IC50	< 0.316 nM
CC(C)NCC(C(=O)N1CCN(c2ncnc3c2C(C)CC3O)CC1)c1ccc(Cl)cc1 (configuration not stated) + COc1c(OCCCN2CCOCC2)ccc2c3n(c(=NC(=O)c4cnc(N)nc4)nc12)CCN3	IC50	< 31.6 nM
CCCS(=O)(=O)Nc1ccc(F)c(C(=O)c2c[nH]c3ncc(-c4ccc(Cl)cc4)cc23)c1F + Cc1nc(NC(=O)N2CCCC2C(N)=O)sc1-c1ccnc(C(C)(C)C(F)(F)F)c1	IC50	31.6 nM
CC1(C)CCC(Nc2ncc(C(F)(F)F)c(-c3c[nH]c4c(P(C)(C)=O)c(C#N)ccc34)n2)CN1 (configuration not stated) + Cc1nc(NC(=O)N2CCCC2C(N)=O)sc1-c1ccnc(C(C)(C)C(F)(F)F)c1	IC50	< 31.6 nM

Query: Which measured IC50 value corresponds to CC1(C)CCC(CN2CCN(c3ccc(C(=O)NS(=O)(=O)c4ccc(NCC5CCOCC5)c([N+](=O)[O-])c4)c(Oc4cnc5[nH]ccc5c4)c3)CC2)=C(c2ccc(Cl)cc2)C1 + CC(Nc1ccc2c(c1)OCCn1cc(N3C(=O)OCC3C(F)F)nc1-2)C(N)=O ?
Response: < 31.6 nM
